test system: BT-549; test: NCI 60 panel: BT-549 (Breast Cancer); assay type: cell-based; conditions: read-out: LC50 (the source's name)
Readout type: CC50

-- ask Give CC50 for this entry on BT-549: COc1ccccc1Nc1nc(-c2cc3cccc(N)c3oc2=O)cs1
-- reply > 100 µM

###

test system: SW-620; test: NCI 60 panel: SW-620 (Colon Cancer); assay type: cell-based; settings: read-out: LC50 (the source's name)
Readout type: CC50

-- ask Give CC50 for this entry on SW-620: COc1ccccc1Nc1nc(-c2cc3cccc(N)c3oc2=O)cs1 [Compound DBM 228]
-- reply > 100 µM

All figures here come from patent US10369145B2.
